- PROTOCOL TEXT: Selectivity ratio of IC50 for rat L6 cells to IC50 for Entamoeba histolytica Hk-9
- Format: ADME, cell-based
- RECORDED CONDITIONS: read-out: Ratio IC50
Could you please report measured selectivity ratio for the items listed next?
Lab note: write the figure by itself, no unit.

Given the compound c1ccc2[nH]c(-c3ccc(OCCCCOc4ccc(-c5nc6ccccc6[nH]5)cc4)cc3)nc2c1 , what is its reported selectivity ratio? 1

Then c1ccc2[nH]c(-c3ccc(OCCCOc4ccc(-c5nc6ccccc6[nH]5)cc4)cc3)nc2c1 ? 1

----------
Could you please report measured pIC50 for the items listed next?
- Test system: Entamoeba histolytica
- PROTOCOL TEXT: Antiprotozoal activity against Entamoeba histolytica Hk-9 trophozoites after 70 hrs by resazurin-based spectrophotometric assay
- Assay type: functional, organism-based
- RECORDED CONDITIONS: Hk-9, 70 h
// returns pIC50 (minus log10 of molar concentration), number only

Given the molecule c1ccc2[nH]c(-c3ccc(OCCCCCCCCCOc4ccc(-c5nc6ccccc6[nH]5)cc4)cc3)nc2c1 , what is its reported pIC50? 4.51

Then c1cc(OCCCCCOc2cccc(-c3nc4ccccc4[nH]3)c2)cc(-c2nc3ccccc3[nH]2)c1 ? 4.56

Then c1cc(OCCCCCCOc2cccc(-c3nc4ccccc4[nH]3)c2)cc(-c2nc3ccccc3[nH]2)c1 ? 4.13

Then c1cc(OCCCCCCCCOc2cccc(-c3nc4ccccc4[nH]3)c2)cc(-c2nc3ccccc3[nH]2)c1 ? 4.63
